The reported numbers originate from paper PMC7796460.

For each record, write down the corresponding SR_TQ.
# Tested on: MES-SA/Dx5 cells
# test: MTT viability assay, MES-SA/Dx5
# Assay type: cell-based, human
# runParameters: Table S1, presence of 1 µM TQ
One number for each entry.

Use the examples below as a reference point.
1. [Cu+2].[O-]c1cccc2cccnc12.[O-]c1cccc2cccnc12 [1/2 [Cu(Q-1)2]]    1.58
2. [Cu+2].[O-]c1c(CN2CCCCC2)ccc2cccnc12.[O-]c1c(CN2CCCCC2)ccc2cccnc12 [1/2 [Cu(Q-3)2]]    1.04
3. [Fe+3].[O-]c1c(CN2CCCCC2)ccc2cccnc12.[O-]c1c(CN2CCCCC2)ccc2cccnc12.[O-]c1c(CN2CCCCC2)ccc2cccnc12 [1/3 [Fe(Q-3)3]]    1.25
4. [Cu+2].[O-]c1c(CN2CCOCC2)ccc2cccnc12.[O-]c1c(CN2CCOCC2)ccc2cccnc12 [1/2 [Cu(Q-2)2]]    1.05
5. [Cu+2].[O-]c1c(CNCc2ccccc2F)cc(Cl)c2cccnc12.[O-]c1c(CNCc2ccccc2F)cc(Cl)c2cccnc12 [1/2 [Cu(Q-4)2]]    1.11

Go through the list and state SR_TQ for each entry.
1. Oc1cccc2cccnc12 [Compound Q-1, 8-Hydroxyquinoline]
2. Oc1c(CNCc2ccccc2F)cc(Cl)c2cccnc12 [Compound Q-4]
3. [Fe+3].[O-]c1cccc2cccnc12.[O-]c1cccc2cccnc12.[O-]c1cccc2cccnc12 [1/3 [Fe(Q-1)3]]
4. [Fe+3].[O-]c1c(CNCc2ccccc2F)cc(Cl)c2cccnc12.[O-]c1c(CNCc2ccccc2F)cc(Cl)c2cccnc12.[O-]c1c(CNCc2ccccc2F)cc(Cl)c2cccnc12 [1/3 [Fe(Q-4)3]]
5. Oc1c(CN2CCOCC2)ccc2cccnc12 [Compound Q-2, 7-(morpho-lino-methyl)quinolin-8-ol]
6. [Fe+3].[O-]c1c(CN2CCOCC2)ccc2cccnc12.[O-]c1c(CN2CCOCC2)ccc2cccnc12.[O-]c1c(CN2CCOCC2)ccc2cccnc12 [1/3 [Fe(Q-2)3]]

Result:
[1.73, 0.68, 1.04, 1.03, 0.85, 1.03]

Ask: Give SR_TQ for the following compound: Oc1c(CN2CCCCC2)ccc2cccnc12 [Compound Q-3, 7-(piperidin-1-ylmethyl)quinolin-8-ol]
Result: 0.95

###

# Tested on: MES-SA cells
# test: ROS determination with DCFDA, MES-SA
# Format: cell-based, human
# runParameters: 12.5 µM, 2 h
# Experimental: Measurements were performed as described earlier. Briefly, cells were harvested, washed with PBS, and incubated with 10 µM DCFDA in a water bath shaker at 37 °C for 30 min in a density of 3 × 10^6 cells/mL. […] Following the measurement of the basal fluorescence, test compounds were added in different concentrations and the fluorescence of the samples was followed at time intervals of 10 min. […] Data were analyzed as fold change of fluorescence compared to basal levels and untreated cells. […]
For each record, write down the corresponding Fold change in fluorescence (DCFDA).
Answers are plain numbers.

Go through the list and state Fold change in fluorescence (DCFDA) for each entry.
1. Oc1ccc(Cl)c2cccnc12
2. Oc1c(CN2CCCCC2)ccc2cccnc12
3. Oc1c(CNCc2ccccc2F)cc(Cl)c2cccnc12
4. Oc1c(CN2CCOCC2)ccc2cccnc12
5. Oc1c(CN2CCOCC2)cc(Cl)c2cccnc12
6. Oc1cccc2cccnc12 [Compound Q-1, 8-Hydroxyquinoline]
7. Oc1c(CN2CCCCC2)cc(Cl)c2cccnc12

Result:
1. 1.119
2. 1.372
3. 1.190
4. 1.792
5. 2.226
6. 0.799
7. 1.861
